target: Drosophila OR85b (Drosophila melanogaster); construct: expressed in transfected cells; test: Calcium ion fluorescence (GCaMP6) assay, OR85b stable HEK293 cell line; format: cell-based; settings: ligand concentration 1 (unit not given); threshold 0.05, below shown as 0
Sequence (Q9VHQ7 whole entry, one chain of several): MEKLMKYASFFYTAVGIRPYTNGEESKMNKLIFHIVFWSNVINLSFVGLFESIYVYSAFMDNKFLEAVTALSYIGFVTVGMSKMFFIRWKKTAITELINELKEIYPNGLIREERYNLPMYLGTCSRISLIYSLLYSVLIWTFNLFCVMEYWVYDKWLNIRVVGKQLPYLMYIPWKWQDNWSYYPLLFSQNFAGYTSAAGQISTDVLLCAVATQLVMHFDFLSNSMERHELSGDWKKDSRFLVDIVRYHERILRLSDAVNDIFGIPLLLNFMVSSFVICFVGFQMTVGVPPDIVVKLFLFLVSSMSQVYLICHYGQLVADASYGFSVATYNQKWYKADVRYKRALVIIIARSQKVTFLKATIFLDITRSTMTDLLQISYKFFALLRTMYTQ
# DF norm AVERAGE OR85b listing for each entry below
Quick one: just the number, no unit, thanks!

Worked examples, 3 molecules total:
- MOLECULE: "C=CCc1ccc(O)c(OC)c1 [eugenol]"
  DF norm AVERAGE OR85b: 0
- MOLECULE: "C=C(C)[C@H]1CC=C(C)CC1 [limonene]"
  DF norm AVERAGE OR85b: 0.07022
- MOLECULE: "CCOC(=O)c1ccccc1 [ethyl benzoate]"
  DF norm AVERAGE OR85b: 0

q: Look up DF norm AVERAGE OR85b for this molecule: C=CC(C)(O)CCC=C(C)C (stereo not drawn) [linalool]
a: 0

q: Look up DF norm AVERAGE OR85b for this molecule: CCCCCOC(C)=O [pentyl acetate]
a: 0

q: Look up DF norm AVERAGE OR85b for this molecule: Cc1ccc(C)cc1 [p-xylene]
a: 0

q: Look up DF norm AVERAGE OR85b for this molecule: CCCC(=O)OCC [ethyl butyrate]
a: 0

q: Look up DF norm AVERAGE OR85b for this molecule: Cc1ccccc1C [o-xylene]
a: 0.08035

q: Look up DF norm AVERAGE OR85b for this molecule: O=Cc1ccccc1 [benzaldehyde]
a: 0.06124

q: Look up DF norm AVERAGE OR85b for this molecule: CC(=O)c1ccccc1 [acetophenone]
a: 0

q: Look up DF norm AVERAGE OR85b for this molecule: C=C1CCC2CC1C2(C)C (stereo not drawn) [beta-pinene]
a: 0

q: Look up DF norm AVERAGE OR85b for this molecule: COC(=O)c1ccccc1 [methyl benzoate]
a: 0

====

Molecular target: Drosophila OR49b (Drosophila melanogaster)
Construct: expressed in transfected cells
Sequence (Q9V6H2 1-375): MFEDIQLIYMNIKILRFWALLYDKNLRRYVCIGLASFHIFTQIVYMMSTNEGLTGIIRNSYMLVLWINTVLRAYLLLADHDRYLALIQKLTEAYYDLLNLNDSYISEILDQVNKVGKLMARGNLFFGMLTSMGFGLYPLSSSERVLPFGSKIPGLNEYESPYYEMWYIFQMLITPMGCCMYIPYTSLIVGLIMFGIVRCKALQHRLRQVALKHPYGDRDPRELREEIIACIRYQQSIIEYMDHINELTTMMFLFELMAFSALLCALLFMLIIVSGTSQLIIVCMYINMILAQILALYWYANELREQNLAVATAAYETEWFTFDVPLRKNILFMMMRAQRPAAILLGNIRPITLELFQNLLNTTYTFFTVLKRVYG
Sequence (Q9VNB5 1-486 partner): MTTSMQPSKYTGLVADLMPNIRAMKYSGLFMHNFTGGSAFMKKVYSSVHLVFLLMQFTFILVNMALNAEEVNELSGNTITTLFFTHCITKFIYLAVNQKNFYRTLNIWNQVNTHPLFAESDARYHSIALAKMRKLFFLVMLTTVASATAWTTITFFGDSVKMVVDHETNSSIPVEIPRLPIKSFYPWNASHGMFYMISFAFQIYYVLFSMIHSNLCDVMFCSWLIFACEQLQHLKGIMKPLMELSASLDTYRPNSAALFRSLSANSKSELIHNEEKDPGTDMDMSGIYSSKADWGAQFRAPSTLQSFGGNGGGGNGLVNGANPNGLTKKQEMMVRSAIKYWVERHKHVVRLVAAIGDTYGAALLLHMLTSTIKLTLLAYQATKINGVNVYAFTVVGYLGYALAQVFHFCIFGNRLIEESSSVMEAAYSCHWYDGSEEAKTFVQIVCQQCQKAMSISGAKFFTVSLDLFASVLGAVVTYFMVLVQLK
Test: cell-based
Settings: OR49b cell line; odorant cc. 100 µM; mean of biological replicates
MEASURED PROPERTY: Average response
Quick one: just the number, no unit, thanks!

- COMPOUND: "C=C1CC/C=C(\\C)CC[C@@H]2[C@@H]1CC2(C)C [(-)-trans-caryophyllene]"
  Average response: 0.00

Lab note: next compound to report on.
q: Look up Average response for this compound: C=C(C)[C@H]1CC=C(C)CC1 [(R)-(+)-limonene]
a: 0.0168
